Target: DCAF12-DDB1-DDA1 (Homo sapiens, UniProt Q16531+Q5T6F0+Q9BW61)
Construct: Despite our attempts to express and purify the full-length (FL) DCAF12 in isolation; made in house; host or cells: Spodoptera frugiperda Sf9 (baculovirus co-expression)
Experiment: FP direct peptide binding, DDB1–DCAF12–DDA1 complex
Details: FITC-labeled peptide 20 nM; protein 2-fold dilution from 4 µM; 20 mM Tris pH 7.5, 150 mM NaCl, 5% glycerol, 0.5 mM TCEP, 0.01% Triton; 45 min, room temperature; triplicates, at least two independent experiments
Where no end group is shown, it is not given here.
PROPERTY_NAME: pKd
Worth noting: pKd values are minus log10 of concentrations stated in mol/L.

Input: For LHEWVLREGEE [MAGEA3] , what is its reported pKd?
Output: 7.22

###

Molecular target: biotinylated DCAF12 (Δ1–78) (Homo sapiens)
Construct: DCAF12:79-453aa; His6 with linker ([…]) (C); made in house; host or cells: Sf9 cells (baculovirus, pFBD-BirA vector)
Experiment: SPR peptide binding, biotinylated DCAF12 (Δ1–78)
Conditions: unlabeled peptide, 8-point 2-fold dilution from 1 μM; 10 mM HEPES pH 7.4, 150 mM NaCl, 3 mM EDTA, 0.005% P20, 5% glycerol, 2% DMSO; 15 °C; 1:1 Langmuir; Table S1
Method: For SPR experiments, DCAF12 Δ1–78 sequence was subcloned into pFBD-BirA vector, expressed in sf9 cells, and purified as described (Table S2). Biotinylated DCAF12 (Δ1–78) was immobilized to a level of ∼3,200 RU on a Biacore Series S streptavidin chip (Cytiva BR100531) using a Biacore 8K+ (Cytiva). […] Reference and buffer-blank subtracted data were analyzed with the Biacore 8K Evaluation Software and fit to a 1:1 Langmuir model to obtain binding kinetics and KD values.
Where no end group is shown, it is not given here.
PROPERTY_NAME: Kd
Value and unit, in that order.

Input: Lookup: Kd / biotinylated DCAF12 (Δ1–78) (Homo sapiens) / IRKPGESEE [CCT5]
Output: 60 nM
